Reported pIC50 by item:
study_target: Induced myeloid leukemia cell differentiation protein Mcl-1 (Homo sapiens) (UniProt Q07820)
Sequence (Q07820 whole entry, looked up): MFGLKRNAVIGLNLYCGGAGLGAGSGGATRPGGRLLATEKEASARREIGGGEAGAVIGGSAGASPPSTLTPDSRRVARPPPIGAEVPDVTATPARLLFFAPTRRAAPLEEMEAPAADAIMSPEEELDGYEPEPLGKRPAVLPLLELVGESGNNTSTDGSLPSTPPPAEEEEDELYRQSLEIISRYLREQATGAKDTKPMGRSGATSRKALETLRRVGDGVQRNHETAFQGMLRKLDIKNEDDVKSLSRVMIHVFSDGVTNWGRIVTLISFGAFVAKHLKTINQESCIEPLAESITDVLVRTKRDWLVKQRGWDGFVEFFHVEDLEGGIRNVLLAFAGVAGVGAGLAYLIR
assay_comment: Mcl-1/Noxa binding inhibitor potency, dose response, biochemical, TR-FRET (AID 1417)
reported_conditions: Mcl-1/Noxa peptide interaction, cell-free TR-FRET (terbium/rhodamine), 2 h; measured here: absolute IC50
pIC50: −log10 of the molar value.

>  <molecule>
COc1ccc(/C=N/NC(=O)c2cc(O)c(O)c(O)c2)cc1Cn1cc([N+](=O)[O-])cn1

>  <pIC50>
> 6.40

$$$$

Problem: Dear colleague, I am looking for the recorded pIC50 of the following molecule: Cc1ccc2c(c1)C1C=CCC1C(C(=O)O)N2 (stereo unspecified)
Result: > 6.40

Problem: For "CC1(C)CC(=O)C(C=Nc2cccc(/N=C/C3=C(O)CC(C)(C)CC3=O)n2)=C(O)C1" then?
Result: < 4.27

Problem: For "CN(C)S(=O)(=O)c1cccc(NC(=S)N/N=C/c2ccc(O)c(O)c2O)c1" then?
Result: > 6.40

Problem: For "O=C(Nc1ccc(Cl)cc1)N1CCc2[nH]c3ccccc3c2C1" then?
Result: < 4.27

Problem: For "CC(=O)Nc1ccc(C2=NNC(=Nc3ccc(S(=O)(=O)N4CCOCC4)cc3)SC2)cc1" then?
Result: > 6.40

Problem: For "COc1cc(C(=O)Nc2ccc(N(C)C)cc2)cc(OC)c1OC" then?
Result: < 4.27

Problem: For "CNc1ccc(Br)cc(C(=O)/C=C/c2cccc(Cl)c2Cl)c1=O" then?
Result: 6.36

Problem: For "CC(=O)Nc1sc(N/N=C/c2ccc(O)cc2)nc1-c1ccc(C)cc1" then?
Result: 5.43

Problem: For "CC(C)(C)c1cc(-c2csc(Nc3ccccc3)[n+]2Cc2ccc(C(=O)O)cc2)cc(C(C)(C)C)c1O" then?
Result: 5.88

Problem: For COc1ccc(N2CCC(CNC(=O)Nc3ccc(Cl)cc3)C2)cc1 (stereo unspecified) then?
Result: 4.29

Problem: For CCOC(=O)c1c(C)oc2c1c(C(c1ccncc1)N1CCOCC1)c(O)c1ccccc12 (stereo unspecified) then?
Result: > 6.40

Problem: For "O=C1C(Cl)=C(Nc2ccc3cn[nH]c3c2)C(=O)c2ccccc21" then?
Result: > 6.40
